Test system: IRF3 signaling pathway (IRF-inducible ISG54 promotor) in THP1-Lucia ISG cells
assayNotes: THP1-Lucia ISG reporter assay: induction of IRF3-dependent luciferase activity
Assay type: cell-based
particulars: Homo sapiens, 10 μM compound, PMA-differentiated cells, 18 h after stimulation, read-out: THP1 ISG: fold increase of IRF3-dependent luciferase activity over background

>  <chemicalSmiles>
O=C(Nc1nc2ccc([N+](=O)[O-])cc2s1)c1cc2ccccc2cc1OCCN1CCOCC1

>  <fold induction at 10 µM>
10 to 19

$$$$
>  <chemicalSmiles>
O=C(Nc1nc2ccc(NC(=O)C3CCCCC3)cc2s1)c1cc2ccccc2cc1OCCN1CCOCC1

>  <fold induction at 10 µM>
5 to 9.9

$$$$
>  <chemicalSmiles>
O=C(Nc1nc2ccc(S(=O)(=O)N3CCC3)cc2s1)c1cc2c(cc1OCCCCN1CCOCC1)OCO2

>  <fold induction at 10 µM>
10 to 19

$$$$
>  <chemicalSmiles>
O=C(Nc1nc2ccc(-c3nc4ccccc4[nH]3)cc2s1)c1ccc2ccccc2c1

>  <fold induction at 10 µM>
5 to 9.9

$$$$
>  <chemicalSmiles>
O=C(Nc1nc2ccc(S(=O)(=O)N3CCC3)cc2s1)c1ccc(-c2ccccc2)cc1

>  <fold induction at 10 µM>
5 to 9.9

$$$$
>  <chemicalSmiles>
O=C(Nc1nc2ccc(S(=O)(=O)N3CCC3)cc2s1)c1ccc(-c2ccccc2)cc1OCCCCN1CCOCC1

>  <fold induction at 10 µM>
10 to 19

$$$$
>  <chemicalSmiles>
O=C(Nc1nc2ccc(S(=O)(=O)N3CCCC3)cc2s1)c1ccc(-c2ccccc2)cc1OCCN1CCOCC1

>  <fold induction at 10 µM>
≥ 40

$$$$
>  <chemicalSmiles>
O=C(Nc1nc2ccc(S(=O)(=O)N3CCCC3)cc2s1)c1sc2ccccc2c1OCCN1CCOCC1

>  <fold induction at 10 µM>
5 to 9.9

$$$$

---

Test system: IRF3 signaling pathway (IRF-inducible ISG54 promotor) in THP1-Lucia ISG cells
assayNotes: THP1-Lucia ISG reporter assay: induction of IRF3-dependent luciferase activity
Type: cell-based
particulars: Homo sapiens, 10 μM compound, PMA-differentiated cells, 18 h after stimulation, read-out: THP1 ISG: fold increase of IRF3-dependent luciferase activity over background
quantityKind: fold induction at 10 µM

>  <compound>
O=C(Nc1nc2ccc(S(=O)(=O)N3CCC3)cc2s1)c1ccc(-c2ccccc2)cc1OCCN1CCOCC1

>  <quantityKind>
fold induction at 10 µM

>  <result>
20 to 39

$$$$
>  <compound>
O=C(Nc1nc2ccc(S(=O)(=O)N3CCCC3)cc2s1)c1cc2ccccc2cc1OCCN1CC2CCC1CO2 (stereo not drawn)

>  <quantityKind>
fold induction at 10 µM

>  <result>
20 to 39

$$$$
>  <compound>
O=C(Nc1nc2ccc(S(=O)(=O)N3CCCC3)cc2s1)c1cc2ccccc2cc1OCCN1CCOCC1

>  <quantityKind>
fold induction at 10 µM

>  <result>
≥ 40

$$$$

---

List of fold induction at 10 µM values.
Tested on: IRF3 signaling pathway (IRF-inducible ISG54 promotor) in THP1-Lucia ISG cells
assayNotes: THP1-Lucia ISG reporter assay: induction of IRF3-dependent luciferase activity
Type: cell-based
particulars: Homo sapiens, 10 μM compound, PMA-differentiated cells, 18 h after stimulation, read-out: THP1 ISG: fold increase of IRF3-dependent luciferase activity over background
quantityKind: fold induction at 10 µM

>  <chemicalSmiles>
COC(=O)c1ccc2nc(NC(=O)c3ccc4ccccc4c3)sc2c1

>  <measurementTarget>
IRF3 signaling pathway (IRF-inducible ISG54 promotor) in THP1-Lucia ISG cells

>  <quantityKind>
fold induction at 10 µM

>  <result>
≥ 40

$$$$
>  <chemicalSmiles>
O=C(Nc1nc2ccc(S(=O)(=O)N3CC4(COC4)C3)cc2s1)c1cc2ccccc2cc1OCCCCN1CCOCC1

>  <measurementTarget>
IRF3 signaling pathway (IRF-inducible ISG54 promotor) in THP1-Lucia ISG cells

>  <quantityKind>
fold induction at 10 µM

>  <result>
2.4 to 4.9

$$$$
>  <chemicalSmiles>
O=C(Nc1nc2cccc(C(F)(F)F)c2s1)c1ccc2ccccc2c1

>  <measurementTarget>
IRF3 signaling pathway (IRF-inducible ISG54 promotor) in THP1-Lucia ISG cells

>  <quantityKind>
fold induction at 10 µM

>  <result>
10 to 19

$$$$
>  <chemicalSmiles>
O=C(Nc1nc2ccc(S(=O)(=O)N3CCC3)cc2s1)c1cc2ccccc2cc1OCCN1CCOCC1

>  <measurementTarget>
IRF3 signaling pathway (IRF-inducible ISG54 promotor) in THP1-Lucia ISG cells

>  <quantityKind>
fold induction at 10 µM

>  <result>
20 to 39

$$$$
>  <chemicalSmiles>
O=C(Nc1c(Cl)cccc1Cl)c1ccc2nc(NC(=O)c3cc4ccccc4cc3OCCCCN3CCOCC3)sc2c1

>  <measurementTarget>
IRF3 signaling pathway (IRF-inducible ISG54 promotor) in THP1-Lucia ISG cells

>  <quantityKind>
fold induction at 10 µM

>  <result>
5 to 9.9

$$$$
